subject_of_test: 5-hydroxytryptamine receptor 2B (Homo sapiens, UniProt P41595)
Sequence (P41595 whole entry): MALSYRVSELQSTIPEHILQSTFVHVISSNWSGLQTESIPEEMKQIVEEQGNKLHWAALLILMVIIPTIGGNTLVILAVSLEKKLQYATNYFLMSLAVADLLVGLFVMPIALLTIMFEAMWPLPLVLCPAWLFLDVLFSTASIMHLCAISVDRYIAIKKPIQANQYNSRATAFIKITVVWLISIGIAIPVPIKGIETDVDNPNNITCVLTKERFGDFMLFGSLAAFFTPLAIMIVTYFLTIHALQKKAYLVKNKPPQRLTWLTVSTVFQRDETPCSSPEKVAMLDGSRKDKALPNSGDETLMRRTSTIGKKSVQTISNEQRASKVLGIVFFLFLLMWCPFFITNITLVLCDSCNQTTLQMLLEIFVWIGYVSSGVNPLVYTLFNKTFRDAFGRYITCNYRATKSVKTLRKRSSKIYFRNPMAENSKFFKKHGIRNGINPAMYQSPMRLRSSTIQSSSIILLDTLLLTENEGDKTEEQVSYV
assay_procedure: Antagonist activity at 5HT2B receptor (unknown origin) at 10 uM by radioligand binding assay relative to control
condition_description: filed as antagonist
recorded_endpoint: inhibition (%)
Reply numerically in %, unit not repeated.

Illustrative cases are given below, each with its answer.
Cc1ccc(CCCc2cc(=O)c3c(O)cccc3o2)cc1 50
COc1cccc(CCCc2cc(=O)c3c(O)cccc3o2)c1 69.3
O=c1cc(CCCc2cccc(Cl)c2)oc2cccc(O)c12 61.7
O=c1cc(CCCc2ccc(C(F)(F)F)cc2)oc2cccc(O)c12 50
Cc1cccc(CCCc2cc(=O)c3c(O)cccc3o2)c1 57.7
O=c1cc(CCCc2cccc(C(F)(F)F)c2)oc2cccc(O)c12 65.8
O=c1cc(CCCc2cccc(F)c2)oc2cccc(O)c12 52.7
N#Cc1cccc(CCCc2cc(=O)c3c(O)cccc3o2)c1 91.1

Could you share which inhibition value was measured for `O=c1cc(CCCc2ccc(Cl)cc2)oc2cccc(O)c12` ? 50.4

Another compound to check: `COc1ccc(CCCc2cc(=O)c3c(O)cccc3o2)cc1` 75.3

Then `O=c1cc(CCCc2ccc(F)cc2)oc2cccc(O)c12` ? 49.2

----------
subject_of_test: 5-hydroxytryptamine receptor 2B (Homo sapiens, UniProt P41595)
assay_procedure: Antagonist activity at 5HT2B receptor (unknown origin) by radioligand binding assay
Recorded Ki by entry
Numeric answer only, unit nM assumed.

Some molecules with known Ki results, for comparison:
O=c1cc(CCCc2cccc(F)c2)oc2cccc(O)c12 2510
O=c1cc(CCCc2ccc(Cl)cc2)oc2cccc(O)c12 2510
Cc1cccc(CCCc2cc(=O)c3c(O)cccc3o2)c1 2000

Given `O=c1cc(CCCc2cccc(Cl)c2)oc2cccc(O)c12` , state its recorded Ki. 2000

----------
subject_of_test: UniProt:P28335
Sequence (P28335 whole entry): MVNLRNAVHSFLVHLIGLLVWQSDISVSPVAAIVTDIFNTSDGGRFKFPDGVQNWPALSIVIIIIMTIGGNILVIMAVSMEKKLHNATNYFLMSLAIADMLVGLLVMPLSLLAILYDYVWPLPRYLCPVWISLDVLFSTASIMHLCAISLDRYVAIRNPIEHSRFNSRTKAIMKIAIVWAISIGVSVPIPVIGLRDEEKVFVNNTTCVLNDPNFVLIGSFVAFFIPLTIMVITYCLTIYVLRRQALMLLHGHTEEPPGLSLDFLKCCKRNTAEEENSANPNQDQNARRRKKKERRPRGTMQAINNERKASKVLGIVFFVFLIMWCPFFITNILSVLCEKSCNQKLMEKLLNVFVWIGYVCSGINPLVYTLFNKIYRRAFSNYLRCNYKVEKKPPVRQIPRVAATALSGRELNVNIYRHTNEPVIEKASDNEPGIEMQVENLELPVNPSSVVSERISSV
recorded_endpoint: pKi
Quick note: pKi means taking -log10 of the concentration in moles per liter.

If you can, please state the reported pKi value of `Cc1ccc(CCCc2cc(=O)c3c(O)cccc3o2)cc1` . 5.50

----------
subject_of_test: 5-hydroxytryptamine receptor 2B (Homo sapiens)
assay_procedure: Agonist activity at 5-HT2B receptor (unknown origin) by calcium mobilization assay
recorded_endpoint: EC50
A complete answer gives the number and then names the unit.

For 5-hydroxytryptamine receptor 2B (Homo sapiens), provide EC50 of `N#Cc1cccc(CCCc2cc(=O)c3c(O)cccc3o2)c1` please. 501 nM
